Tested on: Hepatitis C virus
Assay: Antiviral activity against HCV assessed as prevention of infectious virions release into cell culture supernatant by viral supernatant transfer assay
Type: functional, organism-based
Conditions: Hepacivirus hominis
Activity calls are given as the source filed them. No cut-off for these calls is given here.
reported.property: Activity

molecule=c1ccc(CN2CCCN(Cc3ccccc3)C2)cc1 reading=Active
molecule=COc1ccc(CN2CCCN(Cc3ccc(OC)cc3)C2c2ccc(C#N)c(F)c2)cc1 reading=Active
molecule=CC1N(Cc2ccccc2)CCCN1Cc1ccccc1 reading=Active
molecule=COc1ccc(CN2CCCN(Cc3ccc(OC)cc3)C2c2ccc(C(F)(F)F)cc2)cc1 reading=Active
molecule=Cc1ccc(C2N(Cc3ccccc3)CCCN2Cc2ccccc2)o1 reading=Active
molecule="Fc1ccccc1CN1CCCN(Cc2ccccc2Cl)C1c1cccc(C(F)(F)F)c1 (stereo not given)" reading=Active
molecule=CN(C)c1ccc(CN2CCCN(Cc3ccc(N(C)C)cc3)C2c2ccncc2)cc1 reading=Active
molecule=CN(C)c1ccc(CN2CCCN(Cc3ccc(N(C)C)cc3)C2c2ccc(F)cc2)cc1 reading=Active
molecule=COc1ccc(CN2CCCN(Cc3ccc(OC)cc3)C2c2ccc(C#N)cc2)cc1 reading=Active

With those in mind, consider the next molecule.
Q: Give the measured Activity for `CN(C)c1ccc(C2N(Cc3ccccc3)CCCN2Cc2ccccc2)cc1`
Result: Active

---

Provide the recorded Ratio CC50/EC50 for the entries that follow.
Assay: Selectivity index, ratio of CC50 for human HuH7 cells to EC50 for cell culture derived HCV expressing NS5A-GFP fusion protein
Set-up: species or system Huh-7

Q: Give the measured Ratio CC50/EC50 for COc1ccc(CN2CCCC(CNc3ccc(OC)cc3)C2)cc1 (configuration not stated)
Result: >4.7

Q: Give the measured Ratio CC50/EC50 for COc1cccc(CN2CCCN(Cc3ccccc3F)C2c2ccncc2)c1 (configuration not stated)
Result: >11

Q: Give the measured Ratio CC50/EC50 for `CN(C)c1ccc(C2N(Cc3ccccc3)CCCN2Cc2ccccc2)cc1`
Result: >2

Q: Give the measured Ratio CC50/EC50 for `FC(F)(F)c1cccc(C2N(Cc3ccccc3)CCCN2Cc2ccccc2)c1`
Result: >7.7

Q: Give the measured Ratio CC50/EC50 for Fc1ccccc1CN1CCCN(Cc2ccccc2Cl)C1c1cccc(C(F)(F)F)c1 (configuration not stated)
Result: >4.5

Q: Give the measured Ratio CC50/EC50 for `COc1ccc(CN2CCCN(Cc3ccc(OC)cc3)C2c2ccc(F)cc2)cc1`
Result: 20

Q: Give the measured Ratio CC50/EC50 for `CC1N(Cc2ccccc2)CCCN1Cc1ccccc1`
Result: >14
